The reported measurements were obtained from PubChem BioAssay AID1240.

tested_system: Bcl-2-like protein 10 (Homo sapiens) (UniProt Q9HD36)
Sequence (Q9HD36 whole entry, looked up): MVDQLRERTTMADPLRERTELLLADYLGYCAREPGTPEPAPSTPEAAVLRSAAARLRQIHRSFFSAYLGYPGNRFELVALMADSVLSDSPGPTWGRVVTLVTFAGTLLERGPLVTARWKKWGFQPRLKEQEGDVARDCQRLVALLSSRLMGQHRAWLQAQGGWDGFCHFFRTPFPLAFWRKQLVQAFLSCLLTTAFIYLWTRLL
assay_summary: TR3 peptide-Bcl-B binding displacers, biochemical primary FP assay, phenotype converters (AID 1240);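 note: 0% = Bcl-B with tracer peptide and DMSO and 100% = tracer peptide lacking Bcl-B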
measurement_setup: GST-Bcl-B / FITC-TR3 peptide fluorescence polarization; stronger effect = higher value; compound at 3.75 mg/L
About 800 (1.6%) of roughly 50,000 compounds showed an effect of 50% or more. This excerpt belongs to a sample that is enriched for strong results.
Documented displacement across a set of compounds
Only the number, expressed in %, is required.

The following compounds have reported results that may help.
>>> measured("Cc1ccccc1OCC(=O)Nc1ccccc1CO")
-7.8
>>> measured("Cc1cc(OCCN2CCCC2)ccc1Cl")
-2.8
>>> measured("COc1ccc(C2=NN(C(=O)CCC(=O)O)C(c3ccccc3F)C2)cc1 (configuration not stated)")
12.3
>>> measured("O=S(=O)(Nc1ccc(SC(F)F)cc1)c1cccc2cccnc12")
1.7
>>> measured("CCCCCCCNC1CC(=O)N(c2ccc(Br)cc2)C1=O (configuration not stated)")
1.7
>>> measured("CC(=O)Nc1ccccc1NC(=O)COc1ccccc1C")
11.1
>>> measured("CC1=C(C(=O)OCCc2ccccc2)C(c2ccccc2Cl)CC(=O)N1 (configuration not stated)")
-7.2
>>> measured("COc1ccc(C2CC(c3ccc(F)cc3)=NN2c2cccc(F)c2)cc1OC (configuration not stated)")
-6.2
>>> measured("CCCOc1cccc(C(=O)Nc2ccc(I)cc2Cl)c1")
10.7
>>> measured("Cc1ccccc1OCC(=O)Nc1ccc2c3c(cccc13)CC2")
107

Which measured displacement value corresponds to COc1ccc(C2=NN(c3ccccc3)C(c3ccccc3F)C2)cc1 (configuration not stated) ?
53.9

Which measured displacement value corresponds to COc1ccc(C2CC(c3ccc(F)cc3)=NN2c2ccccc2F)cc1OC (configuration not stated) ?
-4.3

----------
Documented displacement across a set of molecules
tested_system: Bcl-2-like protein 10 (Homo sapiens)
assay_summary: TR3 peptide-Bcl-B binding displacers, biochemical primary FP assay, phenotype converters (AID 1240);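 note: 0% = Bcl-B with tracer peptide and DMSO and 100% = tracer peptide lacking Bcl-B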
measurement_setup: GST-Bcl-B / FITC-TR3 peptide fluorescence polarization; stronger effect = higher value; compound at 3.75 mg/L
Hit rate of the full screen: of about 50,000 compounds, about 800 (1.6%) showed an effect of 50% or more. The sample as a whole holds a higher share of strong results than the screen did.

Which measured displacement value corresponds to O=CN1CCN(c2nc(-c3ccccc3)c3cc(Br)ccc3n2)CC1 ?
84.9%

Which measured displacement value corresponds to O=C(CN1C(=O)c2ccc([N+](=O)[O-])cc2C1=O)N1CCCCC1 ?
-9.1%

Which measured displacement value corresponds to O=C(c1ccccc1)N1CCN(c2nc(-c3ccccc3)c3cc(Cl)ccc3n2)CC1 ?
10.6%

Which measured displacement value corresponds to O=C1S/C(=C/c2ccc(Cl)c(Cl)c2)C(=O)N1c1ccccc1 ?
17.9%

Which measured displacement value corresponds to CCc1cc(C)cc(OCCOc2ccc([N+](=O)[O-])cc2/C=C2/SC(=S)N(C)C2=O)c1 ?
20.5%

----------
tested_system: Bcl-2-like protein 10 (Homo sapiens) (UniProt Q9HD36)
assay_summary: TR3 peptide-Bcl-B binding displacers, biochemical primary FP assay, phenotype converters (AID 1240);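 note: 0% = Bcl-B with tracer peptide and DMSO and 100% = tracer peptide lacking Bcl-B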
measurement_setup: GST-Bcl-B / FITC-TR3 peptide fluorescence polarization; stronger effect = higher value; compound at 3.75 mg/L
About 800 (1.6%) of roughly 50,000 compounds showed an effect of 50% or more. The entries come from a sample that favours strong results as a whole.
measurement_label: displacement (%)
Only the number, expressed in %, is required.

Which measured displacement value corresponds to Cc1cccc(NC(=O)COc2ccccc2)n1 ?
13.2

Which measured displacement value corresponds to Cc1ccc(-c2noc(COc3ccc4ccccc4c3)n2)cc1 ?
11

Which measured displacement value corresponds to CCOC(=O)C1=C(C)N=c2s/c(=C\c3ccccn3)c(=O)n2C1c1ccc(OC)c(OC)c1 (stereo not given) ?
42.1

Which measured displacement value corresponds to NNC(=O)COc1ccccc1OCCOCCOc1ccccc1OCC(=O)NN ?
-10.4

Which measured displacement value corresponds to CCOC(=O)C1=C(C)N=c2s/c(=C\c3cc(Br)c(O)c(OC)c3)c(=O)n2C1c1ccc(OC)c(OC)c1 (stereo not given) ?
-85.1
